Hi there, I'd appreciate the recorded composite z-score for every entry that follows.
Test system: Plasmodium falciparum Sir2 (PF13_0152, Sir2A)
Assay: pfSir2 binders on small-molecule microarrays, primary screen, biochemical, small-molecule microarray, 635 nm fluorescence (AID 1098);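 note: score merges spot fluorescence intensity with its signal-to-noise ratio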
Conditions: small-molecule microarray binding, fluorescence 635 nm; higher = more signal
// no unit string in output, number only

Req: Report its composite z-score with Plasmodium falciparum Sir2 (PF13_0152, Sir2A) as the test system: C=C(C(=O)CC[C@H](OC(C)=O)c1ccc(CO)o1)C(C)C
Resp: 1.73

Req: // fetch composite z-score; item: COC(=O)C(CC#Cc1ccc2c(c1)[C@]1(C(=O)N2)[C@H](c2ccccc2OCCO)N2[C@H](c3ccccc3)[C@H](c3ccccc3)OC(=O)[C@H]2[C@@H]1C(=O)N1CCCCCCC1)C(=O)OC ; system: Plasmodium falciparum Sir2 (PF13_0152, Sir2A)
Resp: 2.12

Req: Provide composite z-score, system Plasmodium falciparum Sir2 (PF13_0152, Sir2A), entry CC(C)C(CO)N1C(=O)[C@@H]2[C@H]3C(=O)OCC=C[C@H]3OC23C=CCN(Cc2ccccc2)C(=O)[C@@H]13 (some centres not stated)
Resp: -0.734

Req: Given COCCCNC(=O)[C@@]1(Cc2ccccc2CN=[N+]=[N-])COC(c2ccc(OCCCO)cc2)=N1 , report its composite z-score on Plasmodium falciparum Sir2 (PF13_0152, Sir2A).
Resp: 1.59

Req: Print Plasmodium falciparum Sir2 (PF13_0152, Sir2A) composite z-score for CCOC(=O)C[C@H]1[C@H](OC(=O)c2ccc(-c3ccccc3)cc2)[C@@H](NC(=O)c2ccccc2)c2cc(OCCCO)ccc2N1C(=O)c1ccccc1 .
Resp: 0.204

Req: Answer briefly: composite z-score recorded on Plasmodium falciparum Sir2 (PF13_0152, Sir2A) for CC(=O)NCCCC[C@@H]1NC(=O)[C@@H]2C[C@H](C(=O)O)[C@H](c3cccc(OCCO)c3)N2C1=O
Resp: 1.25

Req: Jot down composite z-score (Plasmodium falciparum Sir2 (PF13_0152, Sir2A)) of CC(C)C[C@@H]1NC(=O)[C@@H]2C[C@H](C(=O)NCCCCCNC(=O)CS)[C@H](c3cccc(OCCO)c3)N2C1=O .
Resp: 1.68

Reference source for all entries: PubChem BioAssay
